This collection of values is drawn from patent US20250171542A1.

TEST_SYSTEM: mouse PD-L1 (Sino Biological, Cat #50010-M08H) (mouse, UniProt Q9EP73 19-238)
Sequence (Q9EP73 19-238 limits assumed, stated change not applied): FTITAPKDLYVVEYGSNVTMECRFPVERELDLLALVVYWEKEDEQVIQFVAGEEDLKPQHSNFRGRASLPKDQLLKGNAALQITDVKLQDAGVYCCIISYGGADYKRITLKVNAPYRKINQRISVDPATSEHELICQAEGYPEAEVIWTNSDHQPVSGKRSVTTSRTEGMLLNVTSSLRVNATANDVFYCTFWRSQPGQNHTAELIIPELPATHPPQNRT
ASSAY: ELISA

- BINDER: "32E2 (antibody, human IgG1, V domains shown) VH: QEQLEESGGDLVKPEGSLTLTCTASGFSFSSSYYMSWVRQAPGMGLEWIASISGGVTDNAYYASWAKGRFTVSKTSSTTVTLQLTSLTAADTATYFCARDSSSGYFFLLWGPGTLVTVSS VL: LVMTQTPSSVSAAVGGTVTINCQASQNIYSNLAWYQQKPGQRPKLLIFGASNLRSGVPSRFKGSGSGTEYTLTISDLECADAATYYCQEGYSIGNVDNPFGGGTEVVVK"
  binding result: "no binding"
- BINDER: "28B3 (antibody, human IgG1, V domains shown) VH: QSVEESGGRLVTPGTPLTLSCTASGFSLSSYYMIWVRQAPGKGLEYIGYVYTGSGNTWYASWAKGRFAISKASTTVDLMITSPTTEDTATYFCASGADGVYDWGWDIWGPGTLVTVSL VL: DIVMTQTPASVEAAVGDTVTIKCQASQSIYSLLAWYQQKPGQRPKLLIAGASNLESGVPSRFSGSGSGTEYTLTISALECADAATYYCQNNYDSGRIYGLAFGGGTEVVVK"
  binding result: "no binding"
